Molecular target: HLA-A11 (A*1101) (Homo sapiens, UniProt P04439, A114D/D185E/E176A/F33Y/L180Q/S129P/T187R)
Assay: biochemical
Assay type: binding
No end group written: not given here.
# class assignment by measured IC50: low (below 20 nM), medium (20 nM to below 200 nM), high (200 nM or more)

[
  {
    "SEQUENCE TEXT": "VQLDIQSTK [Peptide 78.0301]",
    "MEASURED TARGET": "HLA-A11 (A*1101) (Homo sapiens, UniProt P04439, A114D/D185E/E176A/F33Y/L180Q/S129P/T187R)",
    "CLASSIFICATION": "high"
  },
  {
    "SEQUENCE TEXT": "FTAFLGAFK [Peptide 88.0362]",
    "MEASURED TARGET": "HLA-A11 (A*1101) (Homo sapiens, UniProt P04439, A114D/D185E/E176A/F33Y/L180Q/S129P/T187R)",
    "CLASSIFICATION": "low"
  },
  {
    "SEQUENCE TEXT": "VTVYYGVPVWR [Peptide 1525.01]",
    "MEASURED TARGET": "HLA-A11 (A*1101) (Homo sapiens, UniProt P04439, A114D/D185E/E176A/F33Y/L180Q/S129P/T187R)",
    "CLASSIFICATION": "medium"
  },
  {
    "SEQUENCE TEXT": "DFISFLSYFK [Peptide 88.0188]",
    "MEASURED TARGET": "HLA-A11 (A*1101) (Homo sapiens, UniProt P04439, A114D/D185E/E176A/F33Y/L180Q/S129P/T187R)",
    "CLASSIFICATION": "medium"
  },
  {
    "SEQUENCE TEXT": "SVFQNLQVIK [Peptide 9012.0231]",
    "MEASURED TARGET": "HLA-A11 (A*1101) (Homo sapiens, UniProt P04439, A114D/D185E/E176A/F33Y/L180Q/S129P/T187R)",
    "CLASSIFICATION": "low"
  },
  {
    "SEQUENCE TEXT": "VTIRVAGQVK [Peptide 1516.04]",
    "MEASURED TARGET": "HLA-A11 (A*1101) (Homo sapiens, UniProt P04439, A114D/D185E/E176A/F33Y/L180Q/S129P/T187R)",
    "CLASSIFICATION": "medium"
  },
  {
    "SEQUENCE TEXT": "QSNPYPEPK [Peptide 9017.0070]",
    "MEASURED TARGET": "HLA-A11 (A*1101) (Homo sapiens, UniProt P04439, A114D/D185E/E176A/F33Y/L180Q/S129P/T187R)",
    "CLASSIFICATION": "medium"
  },
  {
    "SEQUENCE TEXT": "HLFWYSWYK [Peptide 76.0168]",
    "MEASURED TARGET": "HLA-A11 (A*1101) (Homo sapiens, UniProt P04439, A114D/D185E/E176A/F33Y/L180Q/S129P/T187R)",
    "CLASSIFICATION": "low"
  },
  {
    "SEQUENCE TEXT": "MVIEPPKLR [Peptide 88.0360]",
    "MEASURED TARGET": "HLA-A11 (A*1101) (Homo sapiens, UniProt P04439, A114D/D185E/E176A/F33Y/L180Q/S129P/T187R)",
    "CLASSIFICATION": "high"
  },
  {
    "SEQUENCE TEXT": "IVGWPAVRER [Peptide 9017.0186]",
    "MEASURED TARGET": "HLA-A11 (A*1101) (Homo sapiens, UniProt P04439, A114D/D185E/E176A/F33Y/L180Q/S129P/T187R)",
    "CLASSIFICATION": "high"
  },
  {
    "SEQUENCE TEXT": "KTTPVVHLK [Peptide 1589.37]",
    "MEASURED TARGET": "HLA-A11 (A*1101) (Homo sapiens, UniProt P04439, A114D/D185E/E176A/F33Y/L180Q/S129P/T187R)",
    "CLASSIFICATION": "medium"
  },
  {
    "SEQUENCE TEXT": "KGLGISYGRKK [Peptide 1577.23]",
    "MEASURED TARGET": "HLA-A11 (A*1101) (Homo sapiens, UniProt P04439, A114D/D185E/E176A/F33Y/L180Q/S129P/T187R)",
    "CLASSIFICATION": "high"
  },
  {
    "SEQUENCE TEXT": "AIRKAILGHR [Peptide 9017.0223]",
    "MEASURED TARGET": "HLA-A11 (A*1101) (Homo sapiens, UniProt P04439, A114D/D185E/E176A/F33Y/L180Q/S129P/T187R)",
    "CLASSIFICATION": "high"
  },
  {
    "SEQUENCE TEXT": "TVDVYMIMVK [Peptide 9012.0257]",
    "MEASURED TARGET": "HLA-A11 (A*1101) (Homo sapiens, UniProt P04439, A114D/D185E/E176A/F33Y/L180Q/S129P/T187R)",
    "CLASSIFICATION": "medium"
  }
]

Data provenance is patent US9340577B2.
